study.system: Acetylcholinesterase (Homo sapiens) (UniProt P22303)
Sequence (P22303 whole entry, looked up): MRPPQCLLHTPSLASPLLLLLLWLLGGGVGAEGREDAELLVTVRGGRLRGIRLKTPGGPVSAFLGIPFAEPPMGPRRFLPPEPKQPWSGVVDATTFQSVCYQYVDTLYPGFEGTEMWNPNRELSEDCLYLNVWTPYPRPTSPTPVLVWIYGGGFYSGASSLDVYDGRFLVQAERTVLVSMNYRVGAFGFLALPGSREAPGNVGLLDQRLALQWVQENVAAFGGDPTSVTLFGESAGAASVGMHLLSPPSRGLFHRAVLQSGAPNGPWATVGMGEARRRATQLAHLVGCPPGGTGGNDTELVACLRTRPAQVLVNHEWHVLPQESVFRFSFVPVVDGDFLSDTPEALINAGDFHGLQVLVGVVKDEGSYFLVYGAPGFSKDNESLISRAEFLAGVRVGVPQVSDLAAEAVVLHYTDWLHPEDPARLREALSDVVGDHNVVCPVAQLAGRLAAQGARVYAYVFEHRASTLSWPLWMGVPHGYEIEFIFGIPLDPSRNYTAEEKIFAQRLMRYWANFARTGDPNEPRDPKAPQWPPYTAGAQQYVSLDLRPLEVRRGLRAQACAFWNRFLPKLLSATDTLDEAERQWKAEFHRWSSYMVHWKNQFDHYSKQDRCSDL
assay.comment: Acetylcholinesterase (AChE) small molecule antagonists: fluorescence cell-based qHTS assay (AID 1347398); note: nearly all actives have a fitted effect of over 50% in size
condition.notes: SH-SY5Y cells; AChE activity; series mostly up to 115 µM
Records with an inconclusive call do not appear. Calls of active or inactive are those of the source. Calls come from the whole dose curve.
property.measured: outcome

Sample answers from the record:
{"molecule": "O=[Se]=O", "reported.measurement": "inactive"}
{"molecule": "O=C(NC(=O)c1c(F)cccc1F)Nc1ccc(OC(F)(F)C(F)OC(F)(F)F)c(Cl)c1 (stereo not drawn)", "reported.measurement": "inactive"}
{"molecule": "CCCCCCCCOC(=O)c1ccc(C(=O)OCCCCCCCC)c(C(=O)OCCCCCCCC)c1", "reported.measurement": "inactive"}
{"molecule": "CCN(C)N=O", "reported.measurement": "inactive"}
{"molecule": "COc1ccc(-c2ccccc2)cc1NNC(=O)OC(C)C", "reported.measurement": "inactive"}

q: Return value of outcome for input CO/N=C(/C(=O)OC)c1ccccc1COc1ccccc1C , no commentary.
a: inactive

q: Note down outcome recorded for C=CCC1([C@H](C)CCC)C(=O)NC(=O)NC1=O
a: inactive

q: Give reported outcome value for BrCCCCBr
a: inactive
